These measurements were taken from patent US9604931B2.

# target-entity: ER-α (Rattus norvegicus (Rat))
# Type: cell-based
# study-conditions: 100 nM compound compared to 1 nM estradiol
Think of 40% as a floor: if Estradiol activity at 100 nM of NRBA, ER-α stands on it or above, it is fulfilled; beneath it, not fulfilled.

{"compound": "COc1cc(O)c2c(=O)n(-c3ccc(O)cc3)ccc2c1C#N [12q]", "class-assignment": "not fulfilled"}
{"compound": "N#Cc1cn(-c2ccc(O)cc2)c(=O)c2c(O)cc(O)cc12 [14m]", "class-assignment": "fulfilled"}
{"compound": "C=Cc1cn(-c2ccc(O)cc2)c(=O)c2c(O)cc(O)cc12 [14l]", "class-assignment": "fulfilled"}
{"compound": "Oc1ccc(-n2ccc3cc(O)cc(O)c3c2=S)cc1 [12p]", "class-assignment": "fulfilled"}
{"compound": "COc1cc(O)c2c(=O)n(-c3ccc(O)cc3)cc(Br)c2c1 [12v]", "class-assignment": "not fulfilled"}
{"compound": "O=c1c2ccc(O)cc2c(Br)cn1-c1ccc(O)cc1 [12b]", "class-assignment": "not fulfilled"}

Task: Determine whether measured Estradiol activity at 100 nM of NRBA, ER-α meets or exceeds 40% for O=c1c2c(O)cc(O)cc2c(Br)cn1-c1ccc(O)cc1 [12u]
Result: fulfilled

Task: Could you please find out whether O=c1c2c(O)cc(O)cc2ccn1-c1ccc(O)c(F)c1 [12s] has Estradiol activity at 100 nM of NRBA, ER-α that meets 40% or exceeds it?
Result: not fulfilled

----------
activation at 0.1 µM values, listed per item
# target-entity: ER-β (Rattus norvegicus (Rat))
# Sequence (Q62986 whole entry): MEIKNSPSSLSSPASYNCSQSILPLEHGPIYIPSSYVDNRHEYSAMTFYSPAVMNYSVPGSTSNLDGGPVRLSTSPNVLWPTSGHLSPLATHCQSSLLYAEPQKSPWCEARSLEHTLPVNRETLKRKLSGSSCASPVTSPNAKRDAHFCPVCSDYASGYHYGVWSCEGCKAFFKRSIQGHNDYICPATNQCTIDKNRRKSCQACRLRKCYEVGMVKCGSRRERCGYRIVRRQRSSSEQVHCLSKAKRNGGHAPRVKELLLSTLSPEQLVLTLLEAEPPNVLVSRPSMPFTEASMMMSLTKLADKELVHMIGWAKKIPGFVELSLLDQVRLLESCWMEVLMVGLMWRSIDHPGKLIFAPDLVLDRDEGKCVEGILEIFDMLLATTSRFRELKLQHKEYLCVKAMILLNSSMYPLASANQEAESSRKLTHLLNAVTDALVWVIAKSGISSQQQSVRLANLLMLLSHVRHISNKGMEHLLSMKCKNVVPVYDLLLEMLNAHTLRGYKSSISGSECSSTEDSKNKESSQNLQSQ
# assay-explanation: ER-β transactivation (ERE-LUC) in COS or 293 cells
# Type: cell-based
# study-conditions: HEK293, 48 h, read-out: Estradiol activity at 100 nM of NRBA, ER-β
# value in %; strip the unit string

{"molecule": "COc1cc(O)c2c(=O)n(-c3ccc(O)cc3)cc(Br)c2c1 [12v]", "activation at 0.1 µM (%)": 10}
{"molecule": "COc1cc(O)c2c(=O)n(-c3ccc(O)cc3)ccc2c1C#N [12q]", "activation at 0.1 µM (%)": 10}
{"molecule": "O=c1c2c(O)cc(O)cc2ccn1-c1ccc(O)c(F)c1 [12s]", "activation at 0.1 µM (%)": 76.9}

Task: Field request: activation at 0.1 µM | item: Oc1ccc(-n2ccc3cc(O)cc(O)c3c2=S)cc1 [12p]
Result: 85
